Test system: MILI (PIWIL2) piRISC loaded with piRNA #1 (26 nt);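 also: 1 nM active piRISC with 0.1 nM target library at 33 °C single turnover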
measurement_protocol: pre-steady-state target cleavage rate (min^-1); guide: piRNA #1 5'p-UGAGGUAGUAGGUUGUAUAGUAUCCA; higher = faster piRNA-guided slicing of the target
applied_conditions: auxiliary factor: 500 nM mouse GTSF1
Hi, to clarify the labels: 1 covers pre-steady-state target cleavage rate from 0.007 upward, 0 covers anything below 0.007.

>>> class_label("GGAGACCUAACUAUACUACCUACUACCUGA")
1
>>> class_label("GGAGUGGUUACUAUACAACCUUCUACCUCA")
1
>>> class_label("GGAGACCUAUGUAUACAUCCUACUACCACA")
1
>>> class_label("GGAGACCUUACUAUACAACCUACCUACCUCA")
1
>>> class_label("GGAGACCUAUGAUUAUCAACCUACUACCUCA")
0
>>> class_label("GGAGACCUAUGAUAACAACCUACUACCUGCA")
0
>>> class_label("GGAGACCUAUGAUUACAACCUAAUACCUCA")
0
>>> class_label("GGAGACGAUACUAUACGACCUACUACCUCA")
1
>>> class_label("GGAGACCAUUCUAUACAACCUACAACCUCA")
1
>>> class_label("GGAGAGGAUACUUUACAACCAACUACCUCA")
0
>>> class_label("GGAGACGAAACUAAACAACCUACUACCUCA")
1
>>> class_label("GGAGACCUAUCUAUACAACCUACUGCCUCA")
1

* * *

Each record here notes measured pre-steady-state target cleavage rate.
Tested on: MILI (PIWIL2) piRISC loaded with L1MC piRNA (26 nt);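 also: 1 nM active piRISC with 0.1 nM target library at 33 °C single turnover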
measurement_protocol: pre-steady-state target cleavage rate (min^-1); guide: L1MC piRNA 5'p-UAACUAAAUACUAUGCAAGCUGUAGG; higher = faster piRNA-guided slicing of the target
applied_conditions: auxiliary factor: none (no GTSF1)
recorded_metric: pre-steady-state target cleavage rate

>>> experimental_value("UCCUGGAUCUCCUUGCAUAGUAUUUAGUUA")
0.00588
>>> experimental_value("UCCUGGAUGUGCUAGCAUACUAUUUAGUUA")
0.00539
>>> experimental_value("UCCUCCAUCAGCUUGCAUAGUAUUUAGUAA")
0.00315
>>> experimental_value("UCCUGGAUGUGCAUGCAUAGUAUUUACUUA")
0.00616
>>> experimental_value("UCCUGCUACUGCUUGCAUAGUAUUAAGUUA")
0.00322
>>> experimental_value("UCCUGGAACAGCGUUGCAUAGUAUUUAGUUA")
0.0103
>>> experimental_value("UCCUGCUACACCUUGCAUAGUAUUUAGUUA")
0.0087
>>> experimental_value("UCCUGGAACAGCUUGGUAAGUAUUUAGUAA")
0.00425
>>> experimental_value("UCCUGGAUGAGCUUGCAUAGUAUUAAGUUA")
0.00479
>>> experimental_value("UCCUGGAUGUCGAUGCCUAGUAUUUAGUUA")
0.00351
>>> experimental_value("UCCUGCUACAGCUUGGUUAGUAUUUAGUUA")
0.0061
>>> experimental_value("UCCUGGUACAGGUUGGAUAGUAUUUAGUUA")
0.00912
>>> experimental_value("UCCUGGAACAGCUGGCAUAGUAUUUAGUUA")
0.00801
>>> experimental_value("UCCUGGUACAGCUUGCAUAGUAUUUAGAUA")
0.00493
>>> experimental_value("UCCUGGAUCAGCUUGCAUAGUAAUAAGUUA")
0.00409
>>> experimental_value("UCCUGGAACAGCUUGCUAAGUAUUUAGUUA")
0.00361
>>> experimental_value("UCCUGGAAGAGCUUGCAUAGUAUUAAGUUA")
0.00346
>>> experimental_value("UCCUGCAACAGCUAGCAUAGUAUUUAGUUA")
0.0104
>>> experimental_value("UCCUGGAUCAGGUUGCAUAGUAUUAAGUUA")
0.00601
>>> experimental_value("UCCUCCUACAGCAUGGAUAGUAUUUAGUUA")
0.00942
>>> experimental_value("UCCUCCUACAGCAUGCAUAGUAUUUAGUUA")
0.0117
>>> experimental_value("UCCUGGAUGUCGUUGCAUAGUAUUUAGUUG [g2:g18:cont:t1G]")
0.00688
>>> experimental_value("UCCUGGAUCCGCUUGCAUAGUAUUUAGUUA")
0.00868
>>> experimental_value("UCCUGGAUGAGCAAGCAUAGUAUUUAGUUA")
0.00601
>>> experimental_value("UCCUGGAACAGCUUGCUAGUAUUUAGUUA")
0.00397
>>> experimental_value("UCCUGGAUGUGCUUGCAUAGUAUUGUAGUUA")
0.0048
>>> experimental_value("UCCUGGAUCAGCUAGCAUACUAUUUAGUUA")
0.00444
>>> experimental_value("UCCUGCUACAGCUCUGCAUAGUAUUUAGUUA")
0.00983
>>> experimental_value("UCCUGGAUGAGCAUGCAUAGUUUUUAGUUA")
0.00788
>>> experimental_value("UCCUGGAUGUCCUUGCAUAGUCAUUUAGUUA")
0.00338
>>> experimental_value("UCCUGGUACAGCUUGCAAACUAUUUAGUUA")
0.00378
>>> experimental_value("UCCUGGUACAGCUUGCAUUGUUUUUAGUUA")
0.00647

* * *

pre-steady-state target cleavage rate reference
System: EfPiwi piRISC loaded with piRNA #1 (26 nt)
measurement_protocol: pre-steady-state target cleavage rate (min^-1); auxiliary factor: 500 nM Ephydatia muelleri Gtsf1; guide: piRNA #1 5'p-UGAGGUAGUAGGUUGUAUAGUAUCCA; MIWI and MILI are mouse PIWI proteins and EfPiwi is from a freshwater sponge; tags in brackets are library labels; higher = faster piRNA-guided slicing of the target
recorded_metric: pre-steady-state target cleavage rate

>>> experimental_value("GGAGACCAUACUAUACAACCUACUACCUACA")
0.00527
>>> experimental_value("GGAGACCUAACUUUACAACCUAGUACCUCA")
0.00417
>>> experimental_value("GGAGUGGAUACUAUUCUACCUACUACCUCA")
0.00571
>>> experimental_value("GGAGACCAUACUAUUCAACGUACUACCUCA")
0.00247
>>> experimental_value("GGAGAGGAUACUAUACAAGCUACUAGCUCA")
0.00266
>>> experimental_value("GGAGAGGAUACAAUACAACCUUCUACCUCA")
0.00307
>>> experimental_value("GGAGACCUUACUGUACAACCUACUACCUCA")
0.0146
>>> experimental_value("GGAGACGAUACUAUACAACCUACUUACCUCA")
0.0069
>>> experimental_value("GGAGUGGUUUCUAUACAACCUACUACCUCA")
0.00603
>>> experimental_value("GGAGACCAUACUUAUACAACCUACUACCUCA")
0.0757
>>> experimental_value("GGAGACCAUGCUAUACAACCUACUACCUCA")
0.00746
>>> experimental_value("GGAGAGGAUACUAUAGAACCUACUACGUCA")
0.00228
>>> experimental_value("GGAGACCUUACUAUACAAGCUACUACCUCA")
0.00386
>>> experimental_value("GGAGACCUAACGUAUACAACCUACUACCUCA")
0.0505
>>> experimental_value("GGAGACGAUACUAUACAACCUACUACCUUCA")
0.0163
>>> experimental_value("GGAGACGAUACUAUACAACCUAGAUCCUCA")
0.00272
>>> experimental_value("GGAGACCUAACUAUACAACCUACUCCCUCA")
0.00341
>>> experimental_value("GGAGACCAUACUAUAACAACCUACUACCUCA")
0.00662
>>> experimental_value("GGAGAGGUUACUAUACAACCUAGUACCUCA")
0.00366
>>> experimental_value("GGAGACGAUACUAUACAACCUACUAACUCA")
0.00467
>>> experimental_value("GGAGACCAUACUAUACAACCUACUACCAUCA")
0.0041
>>> experimental_value("GGAGAGGAUACUAAACAACCUACUUCCUCA")
0.00239
>>> experimental_value("GGAGUGGAUACUAUCAACCUACUACCUCA")
0.0872
>>> experimental_value("GGAGACCUUACUAUUACAACCUACUACCUCA")
0.00484
>>> experimental_value("GGAGACGAUACUAUACAACCAAGUACCUCA")
0.00215
>>> experimental_value("GGAGACGAUACUAUACAAUCCUACUACCUCA")
0.0069
>>> experimental_value("GGAGACGAUACUAUACAACCUACUACGUGA")
0.00515
>>> experimental_value("GGAGACCAUACUACACAACCUACUACCUCA")
0.0182
>>> experimental_value("GGAGUGGAUACUAUACAACCUAGAACCUCA")
0.00464
>>> experimental_value("GGAGACCUUACUUUACAUCCUACUACCUCA")
0.00417

# credit: the supplement of paper PMC10338343
